test system: MS2 coat protein; assay: apparent KD of MS2 coat protein; higher = weaker reporter binding; conditions: Eterna round: R107; input ligand: theophylline 2 mM
Decide using apparent KD of MS2 coat protein: a value greater than or equal to 30 nM is yes, a smaller one is no.

# SEQUENCE DATA, CLASS ASSIGNMENT
records = [
    ("GGGAAAUGAAUAGAAUGAGAUGACACAGAAGGAGCGCGGAUUAACGCAGGUAGGUCGCUGACAACAUGAGGAUCACCCAUGUUUC [#10 Same State - Arginine A]", "no"),
    ("AAUUGAAACAGAGGUAUAUACGGACAUUACCGAGGACCGGUACGGCCGCCACUCGACCUAAAACAUGAGGAUCACCCAUGUAGCA [theeternabot_exclusion_MS2_Trp_A_20]", "no"),
    ("CAAUAGAUAGCGGCCGCCACUUACUCAUGAGGUAACAACAUGAGGAUCACCCAUGUUUGAGGAUCAAGGACCGGGCUAUUUAUUG [AstrosSSTryB#7]", "yes"),
    ("AAGGUGAUCCGUGAUACCAGCUCAACAUGAGGAUCACCCAUGUACGGGACGAAAGUCCCGGGCCCUUGGCAGCACGGUUGCCAAG [SSTheo B #20]", "yes"),
    ("CGCACAUGAGGAUCACCCAUGUGAGGGCGGCGAGGACCGGUACGGCCGCCACUCGCAAAACAUGAGGAUCACCCAUGUGCCGCCG [SSTA DOUBLE!!! :-D #2]", "yes"),
    ("AUACAUGAGGAUCACCCAUGUUACACUGAAGGAGCGACAUGUUUGUCAGGUAGGUCGCAGUGAAGUUUAAUAAUUCUUUGAUCUU [#06 Same State - Arginine A]", "no"),
    ("UACAUGAGGAUCACCCAUGUGUAGAGGGAUACCAGUGACAGUAAGCGCCCUUGGCAGCCCGUGAACAAUGGGUGAGCAAAAUAGU [#17 Exclusion-TheophyllineA]", "no"),
    ("AAGGUGAUCCCAGAUACCAGCUUAACAUGAGGAUCACCCAUGUAUGGGACGAAAGUCCCGGGCCCUUGGCAGCUGGGUUGCCAAG [SSTheo B #16]", "yes"),
    ("UGUACCAUGUCGGCCGCCACUCAUGAUAAGCAUGAGGAUCACCCAUGUAGCGUCAAAGACGCUAUGAGGACCGGGACAUGGUACU [TryBS Zipper 2]", "yes"),
    ("UCGGGCAGAGCGGCCGCCACUGUUUGGCGUGCGGAUGAAGGAACAUGAGGAUCACCCAUGUUGAUUAGGACCGGGCUUGCGGAGA [kklmullin]", "no"),
    ("UGUAUGUGAUCUGAUACCAGUCCAACUGGUAAAGCAUGAGGAUCACCCAUGUAAAAUUGGGACCCUUGGCAGCAGAUCGCAUACU", "yes"),
    ("CCUGACAUGAGGAUCACCCAUGUGUGAGCACGAGGACCGGUACGGCCGCCACUCGCGUUGCCGGCCGGACUAUCUGGCGAAGUCA [theeternabot_sameState_MS2_Trp_A_10]", "yes"),
]

---

test system: MS2 coat protein; assay: apparent KD of MS2 coat protein; designed switch direction (-1 OFF switch, 1 ON switch): -1; higher = weaker reporter binding; details: input ligand: none
As shown below, each of these sequences has a reported apparent KD of MS2 coat protein value.
MEASURED PROPERTY: apparent KD of MS2 coat protein (nM)

# SEQUENCE DATA, MEASURED PROPERTY, VALUE OBSERVED
rows = [
    ("CCUCUGGUAGGAUAUACUGGUGGCGGCAUUAUCGUGAAGGUACAUGAGGAUCACCCAUGUAGAAGGGCUCAAGU [Eternabot (L2) Solution 83] (Eterna round: R97, puzzle: Exclusion 2)", "apparent KD of MS2 coat protein", 37.1),
    ("CUGCUCCGUGUAGGAUAUGCGCGCACCCACCGCGCAGAAGGACAUGAGGAUCACCCAUGUAUGUUAUUAUCACGUGAGGCGCGG [Design 36] (Eterna round: R96, puzzle: Exclusion NG 1)", "apparent KD of MS2 coat protein", 33.1),
    ("CACGUACAGCAAGGAUAUCCAAAUGUUGAGCAUGGCCUAUCCAUACAUGAGGAUCACCCAUGUUCGGAGAAGGUGCAUGUAUCU [Enteinte] (Eterna round: R96, puzzle: Exclusion NG 2)", "apparent KD of MS2 coat protein", 12.8),
    ("CCGGAAAUACAGGAUAUCGUAUCGGAUACGAUACGAGAAGGGUAUACAUGAGGAUCACCCAUGUGUCCUACCGG [Fiskers Ex 6 - 51] (Eterna round: R96, puzzle: Exclusion 6)", "apparent KD of MS2 coat protein", 26.3),
    ("AAUUAAGCAAGCAGAUCCCACAUGAGGAUCACCCAUGUGCUCGUCUUAUAAGGUACUGUGACGAGAGUCACGGUACC [Mat - Sensor, turn-off var - Eli Mod - D70] (Eterna round: R97, puzzle: Sensor, turn-off variant 1)", "apparent KD of MS2 coat protein", 97.1),
]

---

test system: MS2 coat protein; experiment: apparent KD of MS2 coat protein; higher = weaker reporter binding; conditions: Eterna round: R107; input ligand: tryptophan 2.4 mM
# Lookup of reported apparent KD of MS2 coat protein keyed by entry

# SEQUENCE DATA, apparent KD of MS2 coat protein [nM]
records = [
    ("ACGAUACGACAUGAGGAUCACCCAUGUGAUACCAGCGUGGAAACACGCCCUUGGCAGCACAAAUACUCCAAUAACGUAUCGAAAA [MAT - Exclusion Theophlline A - Mod of Eli - D8]", 260),
    ("CCUCAGCAAUUGGAUACCAGUACAUCGUAAGACAUGAGGAUCACCCAUGUGGGCUUGACAUACCCUUGGCAGCCAUCCUUGAUCC [theeternabot_sameState_MS2_Theo_B_3]", 250),
    ("GAUAUGUUUCGAAGGAGCGGCCCUUGAUCCUCAUGAGACAUGAGGAUCACCCAUGUCUCGGGCCAGGUAGGUCGCGAAAUAUAUC [Astros-omei-mod4]", 19.5),
    ("GACCGGUUAUAGCGCGAUUGUCUUGUGGAAGGAGCGCAGAGGGCUGCAGGUAGGUCGCCACAUGAGGAUCACCCAUGUCAGGAAA [Biraesge]", 19.7),
    ("UAUCGUCAGACGGCCGCCACUAGAACAUGAGGAUCACCCAUGUAGUGGCCGGAUACCUCAAUAACUAGGACCGGGUCUGACGAAU [(Trp1)-(Ms2)-(T)'-(M)'-(Trp2)_Design17]", 32.7),
]

---

system: MS2 coat protein; assay: apparent KD of MS2 coat protein, switch OFF state (with FMN for OFF switches, without FMN for ON switches); designed switch direction (-1 OFF switch, 1 ON switch): 1; higher = weaker reporter binding; settings: FMN input: 0 or 200 uM; Eterna round: R93 (includes R88 designs)

# SEQUENCE DATA, UNIT SYMBOL, apparent KD of MS2 coat protein
data = [
    ("CGGAGACAUGAGGAUCACCCAUGUGAGAAGAGGCGAGGAUAUCGAAAGAAAGAAGAGAAACGAGAAGGCGCGAGGU [salish99-SS1-071]", "µM", 0.0345),
    ("AAUUCCACUAGCAAGGAUAUCUAAAACGAAACAUGAGGAUCACCCAUGUGACGACCACACGUAUCAGAGAAGGUGCAGGGUGAAU [JR_SS002_Sub307]", "µM", 0.0319),
    ("AAAACACAUGAGGAUCACCCAUGUAAAAACAUGGGAGGAUAUGCUUGGAAAACAUGCUAUGCAGAAGGCUCAAGUG [SS1 - 12]", "µM", 0.0464),
    ("AAAAGACAUGAGGAUCACCCAUGUCUUCGGACAUGAGGAUAUGUACAGACUUCGGUCUGUACAGAAGGCAUAAAAA [SS1 - 1062]", "µM", 0.0822),
    ("AUGAAUAGCCUCGAGGAUAUCCAGUCAUGCACAUGAGGAUCACCCAUGUAAGAGAGAGUAUAAUGGGAGAAGGCGAGUUCUCGGU [JR_SS002_Sub1705]", "µM", 0.0722),
    ("AAGAAACAUGAGGAUCACCCAUGUAAGAUAAACACAGGAUAUGCAAAAGAAAGAAAGAAAGCAGAAGGGUGAAGAA [Mat - Same State 1 - Tesla mod - 50]", "µM", 0.0423),
]

---

test system: MS2 coat protein; test: apparent KD of MS2 coat protein; higher = weaker reporter binding; conditions: Eterna round: R107; input ligand: theophylline 20 uM
Label Yes when apparent KD of MS2 coat protein is at or above 0.03 µM; otherwise label No.

# SEQUENCE DATA, CLASS ASSIGNMENT
rows = [
    ("UAUCCACAUGAGGAUCACCCAUGUAAGGAAGGAGCGGUGAAUGCACCAGGUAGGUCGCCUUGCUGAGGACUGUCGGUGGAUUCGU [Exclusion - Arginine A (Freestyle 22)]", "Yes"),
    ("GGCCAGGCAGCGGCCGCCACUUAGUGGGCCGAAUGUCCUUUGCUGAACAUGAGGAUCACCCAUGUAAGGACCGGGCUGUUCCGCA [theeternabot_exclusion_MS2_Trp_B_30]", "Yes"),
    ("GGAUUCAACUCGGCCGCCACUGGUGAUCCUAAUGUACAUGAGGAUCACCCAUGUACAUGAGAAUAUAGGACCGGGAGAUAAGUUA [Tryptophan B V3 (+3U)]", "Yes"),
    ("AAUAUAUAGACGGCCGCCACUGGAACCAAUACAUGAGGAUCACCCAUGUGAAAAGGAUAGGUUCACAGGACCGGGUCUUCAUGUA [SS Tryp B Tesla 1.3]", "Yes"),
    ("GGAAACCCGACGGCCGCCACUAACGGUCUCAAAAGAGGUUGAACACAUGAGGAUCACCCAUGUAAUAGGACCGGGUCGUGUGAAA [Design 1]", "No"),
    ("GACAGACGAGGAAGGAGCGACAUGAGGAUCACCCAUGUUGCGGGUUUAAGGUGAACUAAGUGUCAGGUAGGUCGCCUCGCUUUUA [Diatbeat]", "Yes"),
    ("GGGUGGUAGGCGGCCGCCACUGAUUUUUAUUUAUAGAUGACAUGAGGAUCACCCAUGUUUAUGUGCAGGACCGGGCCUGUUGUGG [aaaR]", "No"),
    ("AAAGGAAGGUAAAAUAAAACUACAUGUGAAGGAGCGCCCGAAAGGGCAGGUAGGUCGCACAUGAGGAUCACCCAUGUCCUUCCAA [ArgEX 6 #SwitchBubble]", "Yes"),
    ("ACGUCCAGGUUAAUCGUGGGCAUGGUCGAUACCAGUAUUUUAAUCUACCCUUGGCAGCGACAUGAGGAUCACCCAUGUGCGAUGA [XTheo A #16]", "No"),
    ("UAUACUAUGAAAGUAGUAUAUACGUGUUGACGAGGACCGGUACGGCCGCCACUCGACAUGAGGAUCACCCAUGUAUAGAAUAAGU [TrypA_F1]", "No"),
    ("AGCGCUGUGCAUGAUACCAGCUACAUGAGGAUCACCCAUGUGCGUCAGAAAUGACUGUGUAGCCCUUGGCAGCAUAAAGCAUGUA [Exclusion - Theophylline B (Freestyle 8)]", "No"),
    ("AACAGUAUUAUAGAUACCAGCAGGUCAUAAGACAUGAGGAUCACCCAUGUGAAUGAGGUAUGCCCUUGGCAGCUAUGAGGUCCUC [theeternabot_sameState_MS2_Theo_B_18]", "Yes"),
    ("GAUAUUUGAAAACAAAUAUCAGUGGGUGAACGAGGACCGGUACGGCCGCCACUCGGACAUGAGGAUCACCCAUGUCCAUGUGAAA [AstrosExyTryA#7]", "No"),
    ("UAUCGUCAGACGGCCGCCACUAGAACAUGAGGAUCACCCAUGUAGUGGCCGGAUACCUCAAUAACUAGGACCGGGUCUGACGAAU [(Trp1)-(Ms2)-(T)'-(M)'-(Trp2)_Design17]", "Yes"),
    ("UGUACCAUGUCGGCCGCCACUCAUGAUAAGCAUGAGGAUCACCCAUGUAGCGUCAAAGACGCUAUGAGGACCGGGACAUGGUACU [TryBS Zipper 2]", "Yes"),
    ("GCUAGGUCAUCGGCCGCCACUAACGACGGCUCCAACAUGAGGAUCACCCAUGUGCCACAUGCGCAUAGGACCGGGAUGACCUAGC [SSTB NP+V+V2 #4]", "Yes"),
    ("ACGCCCAGGUAGGCUUAAUGGGAUAUGGAAGGAGCGCUGAUGCAAGCAGGUAGGUCGCCAACGGACAUGAGGAUCACCCAUGUAC [Same State - Arginine A (Freestyle 3)]", "No"),
    ("GGACUAACCAGAAGGAGCGACACGCAGAAACUGCUAAUUCCUCCGCACGAGGAUCACCCGUGUCAGGUAGGUCGCUGGUUAGUCG [ArgBX 28]", "No"),
    ("CUAGGAAACUAGUAAGGGUGGUAUAGAGAUACCAGUACAGAAAUGUACCCUUGGCAGCUCACUGCAACAUGAGGAUCACCCAUGU [Ex Theophylline A 11]", "Yes"),
    ("UGAUUGAACGGAAGGAGCGUGAAGAGAGAGAAACAUGAGGAUCACCCAUGUAGAGAGAGAACACAGGUAGGUCGCCGAGAGAUUG [11.B]", "No"),
    ("UGUAACAUGAGGAUCACCCAUGUAAGUGAUACCAGAUAAGUAGUAGUCCCUUGGCAGCAUAUUGGGCGAGUGUAUAGUCUAUACG [Same State - Theophylline A (Freestyle 7)]", "Yes"),
    ("UAUCGACACUGAAGGAGCGAGAUGACAAACAUGAGGAUCACCCAUGUUAUGGGUUGUUAAUCUCAGGUAGGUCGCAGUGGUCGCA [Same State Arginine B GF 18]", "Yes"),
]
